System: cAMP-dependent protein kinase type I-alpha regulatory subunit (Bos taurus) + cAMP-dependent protein kinase catalytic subunit beta (Mus musculus) (UniProt P00514+P68181)
Method: compounds dissociating PKAc from R1A subunit – biochemical, fluorescence polarization, Cy5-IP20, bovine R1A, mouse PKAc, primary screen (AID 504707);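 note: higher means more PKAc released from R1A so a rise in polarization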
Details: PKA-R1A dissociation, at 11.4 µM, scaled: DMSO 0%, 113 µM cGMP 100%
The campaign covered roughly 340,000 compounds. About 280 (0.082%) were called active.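 Rule for the calls: active = percent activation above the mean of all tested compounds plus 3 SD (cut at about 19% in these data); inactive = the rest.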 This excerpt belongs to a sample that is enriched for actives.
Thanks in advance; please answer with one of these: true (active), false (inactive)

[Q] Look up the recorded call for Cc1cccn2c(=O)c3cc(C(=O)NCCN4CCOCC4)c(=N)n(Cc4cccnc4)c3nc12 in this test.
[A] false

[Q] Same lookup for CCOC(=O)c1c(NC(=S)SC)sc(C(=O)N2CCc3ccccc3C2)c1C , please.
[A] false

[Q] Same lookup for CCC(=O)N1CCc2cc(S(=O)(=O)CCC(=O)N3CCN(c4ccccc4F)CC3)ccc21 , please.
[A] false

[Q] Same read-out for O[C@@H]1C[C@H](c2ccccc2)N(Cc2cccs2)C[C@H]1n1cc(C2CC2)nn1 ?
[A] false

[Q] Again, but for COCCn1c(SCC(=O)Nc2ccc(F)cc2F)nc2c(c1=O)SCC2
[A] false

[Q] Entry to check: CC1CCN(C(=O)CSc2nnc(-c3ccco3)n2N)CC1
[A] false

[Q] Ok, now CCOC(=O)C1CCCN(S(=O)(=O)c2ccc3c(c2)C(C)(C)C(=O)N3C)C1 (stereo unspecified)
[A] false

[Q] Can you handle O=C(CSc1ccc(Cl)cc1)NC1CC1 next?
[A] false

[Q] Continue with O=C(Nc1cccc(C(=O)O)c1)/C(=C\c1ccccc1)NC(=O)c1ccc(Br)o1
[A] false

[Q] Check CC1=C(C(=O)Nc2cccc(C(=O)NCC(C)c3ccccc3)c2)SCCO1 (stereo unspecified) too.
[A] false

[Q] Now consider CCOc1cc(C(=O)Nc2ccc(S(=O)(=O)Nc3cnc4ccccc4n3)cc2)cc(OCC)c1OCC .
[A] false

[Q] Also need COc1ccc(CNc2nnnn2C)cc1 , thanks.
[A] true

[Q] Then what about the compound O=C(NCCOc1ccccc1)c1ccccc1F ?
[A] false

[Q] Follow-up item: C[C@H](CO)N1C[C@H](C)[C@@H](CN(C)C(=O)c2cccc(F)c2)Oc2cc(-c3cncnc3)ccc2S1(=O)=O
[A] false

[Q] Entry to check: CC(=O)Nc1ccc(SCC(=O)NC(=O)c2ccc(Cl)cc2)cc1
[A] false

[Q] Please give the result for Cc1cc(/C=C2/SC(=O)N(CC(=O)N3CCCC3)C2=O)c(C)n1C too.
[A] false

[Q] Same for Cc1ccc(Cc2c(-c3ccccc3)nc3ccc(Cl)cn23)cc1
[A] false

[Q] What do we get for CC(Sc1ccc(S(=O)(=O)N2CCN(C)CC2)cn1)C(=O)NC1CCCC(C)C1C (stereo unspecified) ?
[A] false

[Q] How about CC(C)CC1C(=O)N(Cc2cn(CC3CCCCC3)nn2)CCS(=O)(=O)N1Cc1ccc(-c2ccc(Cl)cc2)cc1 (stereo unspecified) ?
[A] false

[Q] Another compound to look at: Cc1ccc(C(=O)OCC(=O)N2CC(C)CC(C)C2)cc1S(=O)(=O)N1CCCCC1 (stereo unspecified)
[A] false

[Q] Same read-out for CC1(c2cccc(Br)c2)NC(=O)N(CC(=O)NCCC2=CCCCC2)C1=O (stereo unspecified) ?
[A] false

[Q] And Cc1ccc(CCNC(=O)c2ccc3nc4ccccc4c(=O)n3c2)cc1 ?
[A] false

[Q] Same again, this time with CCOC(=O)C1CCN(C(=O)c2ccc3c(=O)n4nc(Nc5ccccc5CC)sc4nc3c2)CC1
[A] false

[Q] # repeat for COc1ccc(-c2ccc(CN3C(C(C)C)C(=O)N(Cc4cn(CC5CCCCC5)nn4)CCS3(=O)=O)cc2)cn1 (stereo unspecified)
[A] false

[Q] Next: Cc1ccc2nc3c(cc(C(=O)NCCc4ccccc4)c(=N)n3CC3CCCO3)c(=O)n2c1 (stereo unspecified)
[A] true

[Q] Next compound up: CCOc1ccc(CCNC(=O)COC(=O)c2ccc(C)c(S(=O)(=O)N3CCOCC3)c2)cc1OCC
[A] false

[Q] Then COc1ccc(S(=O)(=O)N2CCC(C(=O)NCCC(=O)NCCc3cccc(F)c3)CC2)cc1 ?
[A] false

[Q] Same for CCCCN=C(N)/C(C(=O)OCC)=C(\O)c1ccc(OC)cc1
[A] false

[Q] Follow-up item: c1ccc(Cn2nnc3c(NCC4CC4)ncnc32)cc1
[A] false

[Q] Note, next up: Cc1ccc2nsnc2c1NC(=O)c1ccccc1[N+](=O)[O-]
[A] false

[Q] Same question for CC1(C)NC(=O)N(CC(=O)Nc2ccc(-c3ccccc3)cc2)C1=O please.
[A] false

[Q] Proceed to C[C@@H]1CN([C@H](C)CO)C(=O)CCCn2cc(nn2)CO[C@H]1CN(C)S(C)(=O)=O
[A] false

[Q] Next up: Cc1cccc(NS(=O)(=O)c2cc(Cl)ccc2Cl)n1
[A] false

[Q] Again, but for Cc1ccn(CC(=O)NC2CCCN(Cc3ccccc3F)C2)n1 (stereo unspecified)
[A] false

[Q] Quick one: Cn1ncc2c(NNC(=O)Cc3cccc4ccccc34)ncnc21
[A] false

[Q] What would you report for O=C(Nc1ccc(Cl)cn1)c1ccccc1-c1ccccc1 ?
[A] false

[Q] Field entry: CC1=C(C(=O)N(C)C)CC(CC(=O)NCCc2ccccn2)C(=O)N1CCC1=CCCCC1 (stereo unspecified)
[A] false

[Q] Repeat with CCn1c(SCC(=O)N(C)C2CCS(=O)(=O)C2)nnc1-c1cccs1 (stereo unspecified)
[A] false

[Q] // same read-out, input: O=C(COc1ccc(Br)cc1)OCC(=O)c1ccc[nH]1
[A] false

[Q] Record: COc1ccc(CN2C(=O)C(CC(=O)NCCCCc3ccccc3)CC(C(=O)N3CCOCC3)=C2C)cc1 (stereo unspecified)
[A] false

[Q] Note, next up: Cc1ccc(C(=O)O)cc1-c1ccc(/C=C2\SC(=O)N(CC(=O)Nc3ccc4c(c3)OCO4)C2=O)o1
[A] false
